Biological target: Substance-P receptor (Homo sapiens, UniProt P25103)
Sequence (P25103 whole entry): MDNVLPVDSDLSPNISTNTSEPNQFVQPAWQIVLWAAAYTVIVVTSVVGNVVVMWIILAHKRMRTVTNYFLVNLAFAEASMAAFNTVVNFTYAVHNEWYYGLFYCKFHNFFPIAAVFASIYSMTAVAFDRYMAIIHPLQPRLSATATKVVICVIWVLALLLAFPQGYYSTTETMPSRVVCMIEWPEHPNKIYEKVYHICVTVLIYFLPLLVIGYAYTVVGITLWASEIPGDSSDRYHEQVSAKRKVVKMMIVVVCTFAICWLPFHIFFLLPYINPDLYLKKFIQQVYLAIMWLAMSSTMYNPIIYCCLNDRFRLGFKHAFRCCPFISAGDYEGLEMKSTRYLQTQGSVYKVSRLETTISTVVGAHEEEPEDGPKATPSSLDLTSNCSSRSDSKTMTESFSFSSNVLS
Assay: Binding affinity towards human Tachykinin receptor 1 by the displacement of [125I]- Substance P in CHO Cells
Exercise: state measured pIC50 for each of the molecules provided.
In textbook form, pIC50 equals minus log to base ten of the concentration in mol/L.

Q) pIC50 for FC(F)(F)c1cc(C2OC2[C@@H]2OCCN[C@@H]2c2ccccc2)cc(C(F)(F)F)c1 (some centres undefined) ?
A) 7.06

Q) Recorded pIC50 of `O=C1CO[C@@H](/C=C/c2cc(C(F)(F)F)cc(C(F)(F)F)c2)[C@@H](c2ccccc2)N1` , please.
A) 5.60

Q) Given the entry `FC(F)(F)c1cc(CC[C@@H]2OCCN[C@@H]2c2ccccc2)cc(C(F)(F)F)c1` , report its measured pIC50.
A) 5.82

Q) Query (molecule): `FC(F)(F)c1cc(CC[C@H]2OCCN[C@@H]2c2ccccc2)cc(C(F)(F)F)c1` ; field requested: pIC50
A) 5.95

meta.source: ChEMBL document CHEMBL1127943
